assay: yeast display, Sf9 membrane polyspecificity reagent, FACS + sequencing; frameworks hold sequencing errors
assay_readout: polyreactivity (PSR sort gate)

Recorded polyreactivity (PSR sort gate), per entry:
seq	test_result
QVQLVESGGGLVQAGGSLRLSCAASGSTIYNNAMGWYRQAPGKERELVAAITRTGGRTYYADSVKGRFTITRDNAKNTVYLQMNSLKREDTAVYYCAATYPSGRDLSFDYWGQGTQVTVSS	high polyreactivity
QVQLVESGGGLVQAGGSLRLSCAASGFTFFIYVMGWYRQAPGKEREFVAAISSSGDSTYYADSVKGRFTSSRDNAKNTVYLQMNSLKPEDTAVYYCNAGDKVSSYWYDYWGQGTQVTVSS	low polyreactivity
QVQLVESGGGLVQAGGSLRLSCAASGFIFQWYAMGWYRPAPGKERELVAGISAGSTNYADSVKGRFTISRDNAKNTVYLQMNSLKPEDTAVYYCAARDYYIPYYSPGYPYDYWGQGTQVTVSS	high polyreactivity
QVQLVESGGGLVQAGGSLRLSCAASGYIFDSNVMGWYRQAPGKERELVARIRWSGGSTYYADSVKGRFTISRDNAKNTVYLQMNSLKPEDTAVYYCNVVSYYIAGGWYEGDYWGQGTQVTVSS	low polyreactivity

Recorded polyreactivity (PSR sort gate) (sequence "QVQLVESGGGLDQAGGSLRLSCAASASIFQRSAKCWYRQAPGKETELVAAITNGGGSTYYADSVKGRFTISRDNAMNTVYLQMNSLKPEDTAVYYCAKDGHSYYPWEYDYWVQGTQVTVSS" ): low polyreactivity
